Attribution: patent US20240270821A1

TARGET_DESC: T1, human GIP receptor (human) (UniProt P48546)
T1 sequence (looked up): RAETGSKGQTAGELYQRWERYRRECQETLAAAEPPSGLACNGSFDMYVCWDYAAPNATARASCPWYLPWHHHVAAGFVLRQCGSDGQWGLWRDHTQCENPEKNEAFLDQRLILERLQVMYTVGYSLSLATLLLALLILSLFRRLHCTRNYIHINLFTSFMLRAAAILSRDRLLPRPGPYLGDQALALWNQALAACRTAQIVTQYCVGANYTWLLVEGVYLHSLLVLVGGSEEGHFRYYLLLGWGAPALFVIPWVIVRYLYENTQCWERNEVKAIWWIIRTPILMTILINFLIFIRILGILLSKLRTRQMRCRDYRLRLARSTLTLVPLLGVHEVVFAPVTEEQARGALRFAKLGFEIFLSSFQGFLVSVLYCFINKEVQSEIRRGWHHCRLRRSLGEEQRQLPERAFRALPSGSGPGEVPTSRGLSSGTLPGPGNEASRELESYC
ASSAY_PROCEDURE: cell-based or functional assay
Kindly return TRUE if reported cAMP Rel EC50, nM (1% HSA) is no lower than 10 nM; return FALSE if it is lower.

See these solved cases before continuing.
| BINDER | CAT |
| --- | --- |
| YXQGTFTSDXSQXLDKKAQXAFIEYLLAGGPSSGAPPPSGSEE (acylated lysine (γGlu)2-C18 diacid; non-natural residues; C-terminal amide; synthetic construct; SITE 2: note = 2-Aminoisobutyric Acid; SITE 10: note = 3-(4-Pyridyl)-L-alanine; SITE 13: note = alpha-methyl-leucine; SITE 17: note = Lysine is chemically modified through conjugation of the epsilon-amino group of the Lysine side chain with (gamma-Glu)2-CO-(CH2)16-CO2H; SITE 20:) [Example 1036] | TRUE |
| YXQGTXTSDYXSLLDXKAQXXFIEXLLEGGPSSGEPPPE (synthetic construct; SITE 2: note = 2-Aminoisobutyric Acid; SITE 6: note = alpha-methyl-L-phenylalanine; SITE 11: note = alpha-methyl-L-serine; SITE 16: note = L-ornithine; SITE 17: note = Lysine is chemically modified through conjugation of the epsilon-amino group of the Lysine side chain with (2-[) [Example 390] | TRUE |
| YXQGTFTSDFSXXLDKKAQXAFIEYLLEGGXSSGAPPPGGS (acylated; synthetic construct; SITE 2: note = 2-Aminoisobutyric Acid; SITE 12: note = L-ornithine; SITE 13: note = alpha-methyl-leucine; SITE 17: note = Lysine is chemically modified through conjugation of the epsilon-amino group of the Lysine side chain with (2-[2-(2-Amino-ethoxy)-ethoxy]-acetyl)-(gamma-Glu)) [Example 234] | TRUE |

API: above_or_equal(metric=cAMP Rel EC50, nM (1% HSA), cutoff=10 nM) for item YXQGTXTSDXXIXLDXKAAXEFIEXLIEGGPSSGEPPPSGGGE (synthetic construct; SITE 2: note = 2-Aminoisobutyric Acid; SITE 6: note = alpha-methyl-2-fluoro-L-phenylalanine; SITE 10: note = 3-(4-Pyridyl)-L-alanine; SITE 11: note = alpha-methyl-L-serine; SITE 13: note = alpha-methyl-leucine; SITE 16: note = L-ornithine; SITE 17: note = Lysine is chemically mo) [Example 748]
FALSE

API: above_or_equal(metric=cAMP Rel EC50, nM (1% HSA), cutoff=10 nM) for item YXQGTFTSDFSXXLDKKAQXAFIEYLLEGGHSSGAPPPGGS (synthetic construct; SITE 2: note = 2-Aminoisobutyric Acid; SITE 12: note = L-ornithine; SITE 13: note = alpha-methyl-leucine; SITE 17: note = Lysine is chemically modified through conjugation of the epsilon-amino group of the Lysine side chain with (2-[2-(2-Amino-ethoxy)-ethoxy]-acetyl)-(gamma-Glu)) [Example 162]
TRUE

API: above_or_equal(metric=cAMP Rel EC50, nM (1% HSA), cutoff=10 nM) for item YXQGTXTSDYSIXLDKKAQXAFIEYLEEGGPSSGAPPPS (synthetic construct; SITE 2: note = 2-Aminoisobutyric Acid; SITE 6: note = alpha-methyl-2-fluoro-L-phenylalanine; SITE 13: note = alpha-methyl-leucine; SITE 17: note = Lysine is chemically modified through conjugation of the epsilon-amino group of the Lysine side chain with (2-[2-(2-Amino-ethoxy)-et)) [Example 421]
FALSE
